All figures here come from ChEMBL document CHEMBL1129978.

Biological target: Prostaglandin G/H synthase 1 (Homo sapiens)
Sequence (P23219 whole entry): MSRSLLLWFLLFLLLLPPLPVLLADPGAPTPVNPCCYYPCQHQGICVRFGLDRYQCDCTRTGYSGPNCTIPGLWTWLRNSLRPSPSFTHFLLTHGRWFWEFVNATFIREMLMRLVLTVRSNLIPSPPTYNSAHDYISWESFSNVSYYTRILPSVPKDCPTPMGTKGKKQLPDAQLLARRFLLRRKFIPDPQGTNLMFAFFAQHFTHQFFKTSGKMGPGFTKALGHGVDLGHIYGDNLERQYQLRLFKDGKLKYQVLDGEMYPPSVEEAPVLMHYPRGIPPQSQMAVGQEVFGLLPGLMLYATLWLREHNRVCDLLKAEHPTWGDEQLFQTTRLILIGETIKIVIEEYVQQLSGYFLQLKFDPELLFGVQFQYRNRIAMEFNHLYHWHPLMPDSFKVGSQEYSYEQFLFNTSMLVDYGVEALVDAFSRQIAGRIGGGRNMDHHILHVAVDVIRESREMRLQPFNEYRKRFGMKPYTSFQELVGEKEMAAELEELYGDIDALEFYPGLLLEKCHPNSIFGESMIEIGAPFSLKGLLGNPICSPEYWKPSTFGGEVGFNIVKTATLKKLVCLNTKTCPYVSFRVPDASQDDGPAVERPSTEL
Test: Inhibition of human Prostaglandin G/H synthase 1 at 10 ug/mL expressed as mean percent inhibition of control PGE-2 production
Measured endpoint: inhibition (%)

Answered examples (3):
Give its inhibition value. Item: COc1ccc2c(c1)c1c(n2C)C(O)=C(C(=O)Nc2ccccc2)N(C)S1(=O)=O 79

Give its inhibition value. Item: O=C(Nc1cccc(Cl)c1)C1=C(O)c2ccccc2SC1 83

Give its inhibition value. Item: CN1C(O)=C(C(=O)Nc2ccc(Cl)cc2Cl)c2c(ccc(Cl)c2Cl)S1(=O)=O 98

[P] CN1C(O)=C(C(=O)Nc2ccc(Br)cc2)c2ccccc2S1(=O)=O
[Q] Cc1ccc2c(c1)C(O)=C(C(=O)Nc1ccc(Cl)cc1)N(C)S2(=O)=O
Identify the entry with the larger inhibition. Options: P and Q Provide the label of your selected option as the answer. P
(P: 100%, Q: 21%)

----------
Molecular target: Prostaglandin G/H synthase 1 (Homo sapiens)
Assay: Inhibition of human Prostaglandin G/H synthase 1 at 0.1 ug/mL expressed as mean percent inhibition of control PGE-2 production
Measured endpoint: inhibition (%)

Answered examples (5):
Please state recorded inhibition (tested on Prostaglandin G/H synthase 1 (Homo sapiens)) of CC1Sc2ccc(Cl)cc2C(O)=C1C(=O)Nc1ccccn1 (configuration not stated) 14

Please state recorded inhibition (tested on Prostaglandin G/H synthase 1 (Homo sapiens)) of CN1C(C(=O)Nc2ccc(Cl)cc2)=C(O)c2cc(F)ccc2S1(=O)=O 6

Please state recorded inhibition (tested on Prostaglandin G/H synthase 1 (Homo sapiens)) of CN1C(O)=C(C(=O)Nc2ccccn2)c2ccccc2S1(=O)=O 10

Please state recorded inhibition (tested on Prostaglandin G/H synthase 1 (Homo sapiens)) of CN1C(O)=C(C(=O)Nc2ccccn2)c2ccc(Cl)cc2S1(=O)=O 7

Please state recorded inhibition (tested on Prostaglandin G/H synthase 1 (Homo sapiens)) of Cc1cnc(NC(=O)C2=C(O)c3sc4cc(Cl)ccc4c3S(=O)(=O)N2C)s1 58

[P] Cc1cnc(NC(=O)C2=C(O)N(C)S(=O)(=O)c3cc(Cl)ccc32)s1
[Q] CCn1c2c(c3ccccc31)S(=O)(=O)N(C)C(C(=O)Nc1ccccn1)=C2O
[R] CN1C(C(=O)Nc2ccccc2)=C(O)c2cc(Cl)ccc2S1(=O)=O
[S] CN1C(O)=C(C(=O)Nc2ccc(Br)cc2)c2ccc(Cl)cc2S1(=O)=O
Put the entries in order of inhibition, starting with the largest number. # list labels per requested ordering S, R, P, Q

[I] CN1C(C(=O)c2c[nH]c3ccccc23)=C(O)c2ccccc2S1(=O)=O
[II] CN1C(C(=O)Nc2ccccc2)=C(O)c2cc(F)ccc2S1(=O)=O
[III] CN1C(O)=C(C(=O)Nc2ccc(Br)cc2)c2ccccc2S1(=O)=O
Put the entries in order of inhibition, starting with the largest number. # list labels per requested ordering III, I, II
(III: 54%, I: 13%, II: 9%)

----------
Target: Prostaglandin G/H synthase 1 (Homo sapiens)
Experiment: Inhibition of human Prostaglandin G/H synthase 1 at 10 ug/mL expressed as mean percent inhibition of control PGE-2 production
Measured endpoint: inhibition (%)

Answered examples (2):
Give its inhibition value. Item: Cc1cnc(NC(=O)C2=C(O)N(C)S(=O)(=O)c3ccccc32)s1 66

Give its inhibition value. Item: COc1ccc2c(c1)C(O)=C(C(=O)Nc1ccc(Cl)cc1)N(C)S2(=O)=O 14

[1] CC1Sc2ccc(Cl)cc2C(O)=C1C(=O)Nc1cccc(Cl)c1 (stereo not given)
[2] O=C(Nc1cccc(Cl)c1)C1=C(O)c2cc(Cl)ccc2[S+]([O-])C1 (stereo not given)
[3] COc1ccc2c(c1)C(O)=C(C(=O)Nc1ccccc1)N(C)S2(=O)=O
Sort the molecules on inhibition; start with the lowest figure. # list labels per requested ordering 3, 1, 2
